The entries below are paired with their reported pIC50.
target: HLA DRB1 *1501 (Homo sapiens, UniProt P01903+P01911); experiment: IC50nM to purified HLA | DRB1 *1501
Where no end group is shown, it is not given here.
When answering, recall that pIC50 equals minus log10 of the concentration in mol/L, and write that number alone.

Worked cases, answers included:
>  <Chain Sequence>
AAANFVAAFTLKADA [SEQ ID NO: 57]

>  <pIC50>
7.62

$$$$
>  <Chain Sequence>
AAANFVAAYTLKADA [SEQ ID NO: 56]

>  <pIC50>
7.92

$$$$
>  <Chain Sequence>
AAAIFVAANTLHAAA [SEQ ID NO: 72]

>  <pIC50>
7.77

$$$$
>  <Chain Sequence>
AAANFVAAWTLKAEA [SEQ ID NO: 59]

>  <pIC50>
7.51

$$$$
>  <Chain Sequence>
AAAQFVAAWTLKAAA [SEQ ID NO: 63]

>  <pIC50>
7.77

$$$$

Switching to the query record.
### Prompt # assay system HLA DRB1 *1501 (Homo sapiens, UniProt P01903+P01911): give pIC50 of AAAIFVAAFTLHAAA [SEQ ID NO: 71]
### Response 8.01
